- study-system: CYP3A4 (Homo sapiens, UniProt P08684)
- Sequence (P08684 whole entry): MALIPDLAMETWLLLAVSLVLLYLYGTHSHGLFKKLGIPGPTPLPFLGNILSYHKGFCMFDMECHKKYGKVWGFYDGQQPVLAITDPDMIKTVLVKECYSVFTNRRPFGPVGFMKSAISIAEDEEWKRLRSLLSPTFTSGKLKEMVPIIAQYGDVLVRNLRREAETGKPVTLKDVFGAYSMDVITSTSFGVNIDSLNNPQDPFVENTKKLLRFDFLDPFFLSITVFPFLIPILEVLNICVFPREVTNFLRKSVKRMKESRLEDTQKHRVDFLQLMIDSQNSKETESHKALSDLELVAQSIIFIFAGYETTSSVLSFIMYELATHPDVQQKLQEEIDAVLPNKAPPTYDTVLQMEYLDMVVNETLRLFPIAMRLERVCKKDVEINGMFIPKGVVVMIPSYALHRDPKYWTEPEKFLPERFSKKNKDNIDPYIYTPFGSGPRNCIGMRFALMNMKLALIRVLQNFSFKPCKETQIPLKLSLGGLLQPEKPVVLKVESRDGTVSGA
- experimental-protocol: Determination of compound Kiapp against recombinant CYP3A4 enzyme (BFC fluorescent substrate)
- Format: biochemical
- experimental-setup: Baculo. enzyme preparation, read-out: Kiapp (BFC, Baculo.)
- Method: 1. Determination of compound Kiapp A determination of the Kiapp of the compounds of the invention against recombinant CYP3A4 enzyme was performed as follows. The assay was performed in a 100 mM sodium phosphate buffer pH 7.0, 5 mM TCEP and containing 2% dimethylformamide (final concentration) upon addition of substrate and inhibitor. […] The oxidation of the coumarin substrate was recorded by a 96-well plate reader POLARstar (BMG LABTECH, Offenburg, Germany). […]
pKi: −log10 of the molar value.
recorded-endpoint: pKi

A selection of reference data follows.
[
  {
    "compound": "COc1ccncc1NS(=O)(=O)c1ccccc1C(=O)N(C)C(C)C [Example 279]",
    "experimental-result": "< 6.00"
  },
  {
    "compound": "O=C(c1ccccc1S(=O)(=O)Nc1cccnc1)N1CCN(c2ccccn2)CC1 [Example 62]",
    "experimental-result": "< 6.00"
  }
]

// below: pKi requested for another compound
*Q* Need pKi of COc1ccncc1NS(=O)(=O)c1ccccc1C(=O)N(C)Cc1ccc(C(F)(F)F)cc1 [Example 123] , thanks.
*A* 7.14

* * *

Reported pKi is given for each of the following compounds.
- study-system: CYP3A4 (Homo sapiens)
- experimental-protocol: Determination of compound Kiapp against recombinant CYP3A4 enzyme (BFC fluorescent substrate)
- Assay type: biochemical
- experimental-setup: Baculo. enzyme preparation, read-out: Kiapp (BFC, Baculo.)
Field pKi (float): negative decimal logarithm of the concentration in molar.

[
  {
    "compound": "CCOc1ccncc1NS(=O)(=O)c1ccccc1C(=O)NCC(C)CC (stereo not shown)",
    "study-system": "CYP3A4 (Homo sapiens)",
    "pKi": 6.91
  },
  {
    "compound": "Cc1cncc(NS(=O)(=O)c2ccccc2C(=O)N(C)Cc2ccccc2F)c1",
    "study-system": "CYP3A4 (Homo sapiens)",
    "pKi": 7.06
  },
  {
    "compound": "COc1cncc(NS(=O)(=O)c2ccccc2C(=O)NC(C)(C)c2ccccc2)c1",
    "study-system": "CYP3A4 (Homo sapiens)",
    "pKi": 7.28
  },
  {
    "compound": "COc1ccncc1NS(=O)(=O)c1ccccc1C(=O)NCCc1ccccc1Cl",
    "study-system": "CYP3A4 (Homo sapiens)",
    "pKi": 7.86
  },
  {
    "compound": "COc1ccncc1NS(=O)(=O)c1ccccc1C(=O)NC(C)(C)C",
    "study-system": "CYP3A4 (Homo sapiens)",
    "pKi": 6.55
  }
]

*Q* For CYP3A4 (Homo sapiens), provide pKi of `Cc1cncc(NS(=O)(=O)c2ccccc2C(=O)N(C)Cc2ccc(C(F)(F)F)cc2)c1` please.
*A* 7.36

*Q* For CYP3A4 (Homo sapiens), provide pKi of `COc1cncc(NS(=O)(=O)c2ccccc2C(=O)NCCCc2ccccc2OC)c1` please.
*A* 7.42

*Q* For CYP3A4 (Homo sapiens), provide pKi of `Cc1cncc(NS(=O)(=O)c2ccccc2C(=O)N2CCCCC2)c1` please.
*A* 6.16

*Q* For CYP3A4 (Homo sapiens), provide pKi of `CCN(C(=O)c1ccccc1S(=O)(=O)Nc1cncc(OC)c1)C(C)C` please.
*A* 6.67

*Q* For CYP3A4 (Homo sapiens), provide pKi of `COc1cncc(NS(=O)(=O)c2ccccc2C(=O)NCCC2CCCC2)c1` please.
*A* 7.74

*Q* For CYP3A4 (Homo sapiens), provide pKi of `COc1cncc(NS(=O)(=O)c2ccc(OC3CCNCC3)cc2C(=O)N(C)C(C)C)c1` please.
*A* 7.55

*Q* For CYP3A4 (Homo sapiens), provide pKi of `CC(C)CCNC(=O)c1ccccc1S(=O)(=O)Nc1cccnc1` please.
*A* 6.42

* * *

- study-system: UniProtKB P08684
- experimental-protocol: Determination of IC50 against CYP3A4 by measurement of inhibition of midazolam metabolism (human liver microsomes, 1-hydroxymidazolam by LC-MS/MS)
- Type: biochemical
- Design: 0.1 mg/mL human liver microsomes
- experimental-setup: 2 μM midazolam, 0.1 mg/mL human liver microsomes
Reported pIC50 is given for each of the following compounds.
Field pIC50 (float): negative decimal logarithm of the concentration in molar.

[
  {
    "compound": "COc1cncc(NS(=O)(=O)c2ccccc2C(=O)NC(CO)Cc2ccc(Cl)cc2)c1 (stereo not drawn) [Example 199]",
    "study-system": "UniProtKB P08684",
    "pIC50": 8.22
  },
  {
    "compound": "COc1cncc(NS(=O)(=O)c2ccccc2C(=O)NCCc2ccc(F)c(F)c2)c1 [Example 137]",
    "study-system": "UniProtKB P08684",
    "pIC50": 7.74
  },
  {
    "compound": "Cc1cncc(NS(=O)(=O)c2ccccc2C(=O)NCc2cccc(F)c2)c1 [Example 342]",
    "study-system": "UniProtKB P08684",
    "pIC50": 7.96
  },
  {
    "compound": "COC[C@@H]1[C@@H]2C[C@@H]3[C@H]1CN(C(=O)c1ccccc1S(=O)(=O)Nc1cncc(OC)c1)[C@@H]3C2 [Example 194]",
    "study-system": "UniProtKB P08684",
    "pIC50": 7.14
  }
]

// below: pIC50 requested for another compound
*Q* Need pIC50 of Cc1cncc(NS(=O)(=O)c2ccccc2C(=O)N(C)CCc2ccccc2)c1 [Example 344] , thanks.
*A* 8.15

* * *

- study-system: CYP3A4 (Homo sapiens)
- experimental-protocol: Determination of compound Kiapp against recombinant CYP3A4 enzyme (BFC fluorescent substrate)
- Assay type: biochemical
- experimental-setup: Baculo. enzyme preparation, read-out: Kiapp (BFC, Baculo.)
Reported Ki is given for each of the following molecules.
Please state the figure in nM; there is no need to write the unit.

[
  {
    "molecule": "O=C(NCc1cccc(F)c1F)c1ccccc1S(=O)(=O)Nc1cccnc1",
    "study-system": "CYP3A4 (Homo sapiens)",
    "unit-descriptor": "nM",
    "experimental-result": 90
  },
  {
    "molecule": "CCCCCNC(=O)c1ccccc1S(=O)(=O)Nc1cncc(C)c1",
    "study-system": "CYP3A4 (Homo sapiens)",
    "unit-descriptor": "nM",
    "experimental-result": 80.8
  }
]

*Q* Need Ki of COc1cncc(NS(=O)(=O)c2ccccc2C(=O)NC(C)C(C)C)c1 (stereo not drawn) , thanks.
*A* 197

* * *

Reported IC50 is given for each of the following molecules.
- study-system: CYP3A4 (Homo sapiens)
- experimental-protocol: Determination of IC50 against CYP3A4 by measurement of inhibition of testosterone metabolism (human liver microsomes, 6-β-OH-testosterone by LC-MS/MS)
- Type: biochemical
- Set-up: 0.1 mg/mL human liver microsomes
- experimental-setup: read-out: IC50 (Testo.)

[
  {
    "molecule": "COc1cncc(NS(=O)(=O)c2ccccc2C(=O)N(C)CCC(C)C)c1",
    "experimental-result": "30 nM"
  }
]

*Q* Need IC50 of COc1cncc(NS(=O)(=O)c2ccccc2C(=O)NC(CO)Cc2ccc(Cl)cc2)c1 (stereo not drawn) , thanks.
*A* 11 nM

*Q* Need IC50 of `CC(C)(CN1CCCC1)NC(=O)c1ccccc1S(=O)(=O)Nc1cccnc1` , thanks.
*A* > 750 nM

*Q* Need IC50 of `CCOc1cncc(NS(=O)(=O)c2ccccc2C(=O)NCc2ccc(F)c(C(F)(F)F)c2)c1` , thanks.
*A* 18 nM

*Q* Need IC50 of `COc1cncc(NS(=O)(=O)c2ccccc2C(=O)NCc2ccc(C#N)cc2Cl)c1` , thanks.
*A* 12 nM

*Q* Need IC50 of `COc1cncc(NS(=O)(=O)c2ccccc2C(=O)N2CCCCC2)c1` , thanks.
*A* 117 nM

*Q* Need IC50 of `Cc1cncc(NS(=O)(=O)c2ccccc2C(=O)N(C)C(C)C)c1` , thanks.
*A* 65 nM

*Q* Need IC50 of `COc1cncc(NS(=O)(=O)c2ccc(OC3CCNCC3)cc2C(=O)N(C)C(C)C)c1` , thanks.
*A* 264 nM

*Q* Need IC50 of `COc1ccncc1NS(=O)(=O)c1ccccc1C(=O)N1CCCCC1` , thanks.
*A* 349 nM

* * *

- study-system: CYP3A4 (Homo sapiens, UniProt P08684)
- experimental-protocol: Determination of compound Kiapp against recombinant CYP3A4 enzyme (BFC fluorescent substrate)
- Assay type: biochemical
- experimental-setup: Baculo. enzyme preparation, read-out: Kiapp (BFC, Baculo.)
recorded-endpoint: pKi
Field pKi (float): negative decimal logarithm of the concentration in molar.

A selection of reference data follows.
[
  {
    "smiles-record": "Cc1cncc(NS(=O)(=O)c2ccccc2C(=O)N2CCCC(C)(C)C2)c1",
    "experimental-result": 6.69
  },
  {
    "smiles-record": "Cc1cncc(NS(=O)(=O)c2ccccc2C(=O)N(C)Cc2ccc(F)cc2)c1",
    "experimental-result": 7.26
  },
  {
    "smiles-record": "CN(c1cccnc1)S(=O)(=O)c1ccccc1C(=O)NCc1cccc(F)c1",
    "experimental-result": 6.91
  }
]

// below: pKi requested for another molecule
*Q* Need pKi of `CCOc1cncc(NS(=O)(=O)c2ccccc2C(=O)NC(C)(C)C)c1` , thanks.
*A* 6.87
